Biological target: Human recombinant FAP (Homo sapiens, UniProt Q12884)
Sequence (Q12884 whole entry): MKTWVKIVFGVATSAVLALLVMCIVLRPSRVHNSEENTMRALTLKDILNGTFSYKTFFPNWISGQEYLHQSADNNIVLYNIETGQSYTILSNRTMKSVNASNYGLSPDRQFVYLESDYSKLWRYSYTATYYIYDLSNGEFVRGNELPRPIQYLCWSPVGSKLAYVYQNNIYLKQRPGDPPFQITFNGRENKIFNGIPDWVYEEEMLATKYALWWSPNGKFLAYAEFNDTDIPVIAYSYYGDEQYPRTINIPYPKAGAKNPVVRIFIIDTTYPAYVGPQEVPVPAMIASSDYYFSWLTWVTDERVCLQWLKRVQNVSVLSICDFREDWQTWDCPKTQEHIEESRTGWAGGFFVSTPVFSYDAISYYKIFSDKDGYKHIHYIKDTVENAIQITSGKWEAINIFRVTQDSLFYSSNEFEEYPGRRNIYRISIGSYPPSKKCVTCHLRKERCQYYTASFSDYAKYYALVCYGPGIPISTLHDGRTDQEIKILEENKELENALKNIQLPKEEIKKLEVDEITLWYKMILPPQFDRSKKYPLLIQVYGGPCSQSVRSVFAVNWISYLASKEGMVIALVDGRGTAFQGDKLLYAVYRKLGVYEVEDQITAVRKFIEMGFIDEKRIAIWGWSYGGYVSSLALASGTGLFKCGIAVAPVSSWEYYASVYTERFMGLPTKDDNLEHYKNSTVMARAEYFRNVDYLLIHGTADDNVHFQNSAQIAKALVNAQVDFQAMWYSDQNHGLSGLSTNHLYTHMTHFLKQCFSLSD
Assay: FRET-based FAP protease activity assay
Assay type: biochemical
Parameters: purchased R&D systems 3715-SE
Conditions: pIC50 Category (Activity), FRET-based FAP protease activity assay, recombinant human FAP, 37° C.
pIC50: −log10 of the molar value. Numbered stars: 1 amine (or outer) side, 2 acyl side, 3 side chain; on linkers, the order of the positions; unused ones are H or OH. Bridge positions count the residues as written; N and C are the ends. Square brackets hold non-standard residues; d marks the D form. Peptide text beside a SMILES is read from it. * marks the point of attachment. X17 = NC(=O)[C@H](CCCCNC(=O)CN1CCN(CC(=O)O)CCN(CC(=O)O)CCN(CC(=O)O)CC1)NC(=O)CCC(=O)NCCCOCCOCCOCCCN*; TBMB(SCH2CH2NH-DOTA) = O=C(O)CN1CCN(CC(=O)O)CCN(CC(=O)NCCSCc2cc(C[*:1])cc(C[*:2])c2)CCN(CC(=O)O)CC1; DOTA = O=C(O)CN1CCN(CC(=O)O)CCN(CC(=O)*)CCN(CC(=O)O)CC1; mXylylene = c1cc(C[*:1])cc(C[*:2])c1; Pentanesulfonyl = CCCCCS(=O)(=O)*; NMeF = CN[C@@H](Cc1ccccc1)C(=O)O; Hexanoyl = CCCCCC(=O)*; AEEA = NCCOCCOCC(=O)O; Ahx = NCCCCCC(=O)O
measure-name: pIC50

Reference set, count: 4
molecule	pIC50
CCCCCC(=O)N[C@H]1CSCc2cccc(c2)CSC[C@@H](C(=O)N[C@@H](CC(=O)O)C(=O)NCCCOCCOCCOCCCNC(=O)CCC(=O)N[C@@H](CCCCNC(=O)CN2CCN(CC(=O)O)CCN(CC(=O)O)CCN(CC(=O)O)CC2)C(N)=O)NC(=O)[C@H](Cc2ccccc2)NC(=O)[C@H](CCC(=O)O)NC(=O)[C@H]([C@@H](C)O)NC(=O)[C@@H]2CCCN2C(=O)[C@@H]2CCCN2C1=O [3BP-3396] (Hexanoyl-CPPTEFCD-X17; linker 1-7 via mXylylene)	> 8.00
CCCCCS(=O)(=O)N[C@H]1CSCc2cc(CSCCNC(=O)CN3CCN(CC(=O)O)CCN(CC(=O)O)CCN(CC(=O)O)CC3)cc(c2)CSC[C@@H](C(=O)O)NC(=O)[C@H](Cc2ccccc2)NC(=O)[C@H](CCC(=O)O)NC(=O)[C@H]([C@@H](C)O)NC(=O)[C@@H]2CCCN2C(=O)[C@@H]2CCCN2C1=O [3BP-3691] (Pentanesulfonyl-CPPTEFC-OH; linker 1-7 via TBMB(SCH2CH2NH-DOTA))	7.10 to 8.00
C[C@@H](O)[C@@H]1NC(=O)[C@@H]2CCCN2C(=O)[C@@H]2CCCN2C(=O)[C@@H](NC(=O)CCCN)CSCc2cccc(c2)CSC[C@@H](C(N)=O)NC(=O)[C@H](Cc2ccccc2)NC(=O)[C@H](CCC(N)=O)NC1=O	< 6.00
C[C@@H](O)[C@@H]1NC(=O)[C@@H]2CCCN2C(=O)[C@@H]2CCCN2C(=O)[C@@H](NC(=O)COCCOCCNC(=O)CN2CCN(CC(=O)O)CCN(CC(=O)O)CCN(CC(=O)O)CC2)CSCc2cccc(c2)CSC[C@@H](C(=O)N[C@@H](CC(=O)O)C(=O)N[C@@H](Cc2c[nH]cn2)C(=O)N(C)[C@@H](Cc2ccccc2)C(=O)N[C@@H](CCCNC(=N)N)C(=O)N[C@@H](CC(=O)O)C(N)=O)NC(=O)[C@H](Cc2ccccc2)NC(=O)[C@H](CCC(=O)O)NC1=O [3BP-3267] ({DOTA-AEEA}-CPPTEFCDH[NMeF]RD-NH2; linker 1-7 via mXylylene)	6.10 to 7.00

Continue with the molecule presented below.
I am curious: what pIC50 value has been reported for C[C@@H](O)[C@@H]1NC(=O)[C@@H]2CCCN2C(=O)[C@@H]2CCCN2C(=O)[C@@H](NC(=O)CCCCCNC(=O)CN2CCN(CC(=O)O)CCN(CC(=O)O)CCN(CC(=O)O)CC2)CSCc2cccc(c2)CSC[C@@H](C(=O)N[C@@H](CC(=O)O)C(=O)N[C@@H](Cc2c[nH]cn2)C(=O)N(C)[C@@H](Cc2ccccc2)C(=O)N[C@@H](CCCNC(=N)N)C(=O)N[C@@H](CC(=O)O)C(N)=O)NC(=O)[C@H](Cc2ccccc2)NC(=O)[C@H](CCC(=O)O)NC1=O [3BP-3266] ({DOTA-Ahx}-CPPTEFCDH[NMeF]RD-NH2; linker 1-7 via mXylylene) ? 6.10 to 7.00

---

pIC50: −log10 of the molar value. Numbered stars: 1 amine (or outer) side, 2 acyl side, 3 side chain; on linkers, the order of the positions; unused ones are H or OH. Bridge positions count the residues as written; N and C are the ends. Square brackets hold non-standard residues; d marks the D form. Peptide text beside a SMILES is read from it. * marks the point of attachment. TBMB(SCH2CH2NH-DOTA) = O=C(O)CN1CCN(CC(=O)O)CCN(CC(=O)NCCSCc2cc(C[*:1])cc(C[*:2])c2)CCN(CC(=O)O)CC1; X13 = O=C(O)CN1CCN(CC(=O)O)CCN(CC(=O)N2CCN(Cc3cc(C[*:1])cc(C[*:2])c3)CC2)CCN(CC(=O)O)CC1; DOTA = O=C(O)CN1CCN(CC(=O)O)CCN(CC(=O)*)CCN(CC(=O)O)CC1; Pro(trans-4-F) = O=C(O)[C@@H]1C[C@@H](F)CN1; mXylylene = c1cc(C[*:1])cc(C[*:2])c1; Hyp = O=C(O)[C@@H]1C[C@@H](O)CN1; NMeF = CN[C@@H](Cc1ccccc1)C(=O)O; Hexanoyl = CCCCCC(=O)*; Ahx = NCCCCCC(=O)O; Sar = CNCC(=O)O
So I've got pIC50 readings for FAP-expressing human WI-38 fibroblasts (Homo sapiens), take a look.

Reference set, count: 2
compound	pIC50
CCCCCC(=O)N[C@H]1CSCc2cccc(c2)CSC[C@@H](C(N)=O)NC(=O)[C@H](Cc2ccccc2)NC(=O)[C@H](CCC(=O)O)NC(=O)[C@H]([C@@H](C)O)NC(=O)[C@@H]2C[C@@H](F)CN2C(=O)[C@@H]2CCCN2C1=O [3BP-3352] (Hexanoyl-CP[Pro(trans-4-F)]TEFC-NH2; linker 1-7 via mXylylene)	6.10 to 7.00
CCCCCC(=O)N[C@H]1CSCc2cc(CSCCNC(=O)CN3CCN(CC(=O)O)CCN(CC(=O)O)CCN(CC(=O)O)CC3)cc(c2)CSC[C@@H](C(=O)O)NC(=O)[C@H](Cc2ccccc2)NC(=O)[C@H](CCC(N)=O)NC(=O)[C@H]([C@@H](C)O)NC(=O)[C@@H]2CCCN2C(=O)CN(C)C1=O [3BP-3678] (Hexanoyl-C[Sar]PTQFC-OH; linker 1-7 via TBMB(SCH2CH2NH-DOTA))	> 8.00

I am curious: what pIC50 value has been reported for C[C@@H](O)[C@@H]1NC(=O)[C@@H]2CCCN2C(=O)[C@@H]2CCCN2C(=O)[C@@H](NC(=O)CCCCCNC(=O)CN2CCN(CC(=O)O)CCN(CC(=O)O)CCN(CC(=O)O)CC2)CSCc2cccc(c2)CSC[C@@H](C(=O)N[C@@H](CC(=O)O)C(=O)N[C@@H](Cc2c[nH]cn2)C(=O)N(C)[C@@H](Cc2ccccc2)C(=O)N[C@@H](CCCNC(=N)N)C(=O)N[C@@H](CC(=O)O)C(N)=O)NC(=O)[C@H](Cc2ccccc2)NC(=O)[C@H](CCC(=O)O)NC1=O [3BP-3266] ({DOTA-Ahx}-CPPTEFCDH[NMeF]RD-NH2; linker 1-7 via mXylylene) ? 6.10 to 7.00

I am curious: what pIC50 value has been reported for CCCCCC(=O)N[C@H]1CSCc2cccc(c2)CSC[C@@H](C(N)=O)NC(=O)[C@H](Cc2ccccc2)NC(=O)[C@H](CCC(=O)O)NC(=O)[C@H]([C@@H](C)O)NC(=O)[C@@H]2C[C@@H](O)CN2C(=O)[C@@H]2CCCN2C1=O [3BP-3366] (Hexanoyl-CP[Hyp]TEFC-NH2; linker 1-7 via mXylylene) ? 7.10 to 8.00

I am curious: what pIC50 value has been reported for CCCCCC(=O)N[C@H]1CSCc2cc(CSCCNC(=O)CCC(=O)NCCCOCCOCCOCCCNC(=O)CCCCC3(N(C)CC(=O)O)CN(CC(=O)O)CCN(CC(=O)O)C3)cc(c2)CSC[C@@H](C(=O)O)NC(=O)[C@H](Cc2ccccc2)NC(=O)[C@H](CCC(N)=O)NC(=O)[C@H]([C@@H](C)O)NC(=O)[C@@H]2CCCN2C(=O)[C@@H]2CCCN2C1=O [3BP-4384] ? 7.10 to 8.00

I am curious: what pIC50 value has been reported for CCCCCC(=O)N[C@H]1CSCc2cc(cc(CN3CCN(C(=O)CN4CCN(CC(=O)O)CCN(CC(=O)O)CCN(CC(=O)O)CC4)CC3)c2)CSC[C@@H](C(=O)N[C@@H](CC(=O)O)C(N)=O)NC(=O)[C@@H]2CCCN2C(=O)[C@H](Cc2ccccc2)NC(=O)[C@@H]2CCCN2C(=O)[C@H](CCC(N)=O)NC(=O)[C@H]([C@@H](C)O)NC1=O [3BP-3856] (Hexanoyl-CTQPFPCD-NH2; linker 1-7 via X13) ? < 6.00

I am curious: what pIC50 value has been reported for CCCCCC(=O)N[C@H]1CSCc2cc(CSCCNC(=O)CN3CCN(CC(=O)O)CCN(CC(=O)O)CCN(CC(=O)O)CC3)cc(c2)CSC[C@@H](C(N)=O)NC(=O)[C@H](Cc2ccccc2)NC(=O)[C@H](CCC(N)=O)NC(=O)[C@H]([C@@H](C)O)NC(=O)[C@@H]2CCCN2C(=O)[C@@H]2CCCN2C1=O [3BP-3652] ? > 8.00

I am curious: what pIC50 value has been reported for C[C@@H](O)[C@@H]1NC(=O)[C@@H]2CCCN2C(=O)[C@@H]2CCCN2C(=O)[C@@H](NC(=O)C2CCCCC2)CSCc2cc(CSCCNC(=O)CN3CCN(CC(=O)O)CCN(CC(=O)O)CCN(CC(=O)O)CC3)cc(c2)CSC[C@@H](C(=O)O)NC(=O)[C@H](Cc2ccccc2)NC(=O)[C@H](CCC(N)=O)NC1=O [3BP-3908] ? 6.10 to 7.00
